assay-overview: chemical genetic growth profiling, strain panel (AID 1159580);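 also: tested at 20 µM; growth read once vehicle control cultures reached saturation at 30 °C; 1 = growth at the plate median or of vehicle wells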
condition: S. cerevisiae deletion strains, growth OD, locus YLR113W, strain HOG1
Screen size: about 5,500 compounds; about 2,000 (36%) were called active. About 18% were inconclusive and are not listed. Rule as the data show it: active = normalized growth mostly below about 0.91 (no sharp cut-off); inconclusive = no clear call, values can overlap the other calls; inactive = mostly above about 0.92. The list shows a part of the results.
Choose the fitting class; nothing outside Y = active, N = inactive is accepted.

compound=CC(=O)c1ccc(Cl)c(NS(=O)(=O)c2cc(Cl)c(Cl)cc2Cl)c1 discrete_label=Y
compound="COc1ccc(C(CC(=O)c2ccccc2)Sc2ccccc2N)cc1OC (centres undefined)" discrete_label=N
compound="CC1(O)CC2C(CC1O)C2(C)C (centres undefined)" discrete_label=N

Q: What did this assay record as the result for c1ccc2c(c1)sc1ccccc12 ?
Ans: N

Q: Dear colleague, could you share the recorded outcome for O=C(O)/C=C/c1ccc(O)c(O)c1 when you have a moment?
Ans: N

Q: Name the outcome recorded for Fc1cc(I)ccc1Nc1ccnc2cc(Cl)ccc12 in the assay.
Ans: N

Q: # fetch the recorded call for c1ccc2c(c1)CCCC2C1=NCCN1 (centres undefined) here
Ans: N

Q: What call does the record list for CCN(CC)Cc1ccc(Nc2ccnc3cc(Cl)ccc23)cc1O ?
Ans: N

Q: Status in this test for O=S(=O)(O)c1cc(N=C=S)ccc1/C=C/c1ccc(N=C=S)cc1S(=O)(=O)O ?
Ans: N

Q: Would you mind telling me which call this test gave C/C(Cc1nnn(-c2cc(C)on2)n1)=N/OC(=O)Nc1ccc(Cl)cc1 ?
Ans: Y

###

assay-overview: chemical genetic growth profiling, strain panel (AID 1159580)
condition: S. cerevisiae deletion strains, growth OD, locus YLR342W, strain FKS1, hits give low values
Hit rate of the full screen: of about 5,500 compounds, about 2,000 (36%) were called active. Another 18% or so got no clear call; they are omitted. This is one part of the list.
So basically: is normalized growth under 1? Then yes. Not under? Then no.

compound_structure=O=C(Oc1cc(O)cc2c1C[C@@H](OC(=O)c1cc(O)c(O)c(O)c1)[C@@H](c1cc(O)c(O)c(O)c1)O2)c1cc(O)c(O)c(O)c1 discrete_label=no
compound_structure=COc1ccc(CN(CCN(C)C)c2ccccn2)cc1 discrete_label=no

Q: Could you please tell me whether normalized growth recorded for Nc1nc(=S)c2[nH]cnc2[nH]1 is less than 1?
Ans: yes

###

Could you please report measured normalized growth for the items listed next?
assay-overview: chemical genetic growth profiling, strain panel (AID 1159580)
condition: S. cerevisiae deletion strains, growth OD, locus YMR078C, strain ctf18, hits give low values
The whole screen tested about 5,500 compounds, of which about 2,000 (36%) were called active. Roughly 18% stayed inconclusive and do not appear here. This is one part of the list.
Numbers only.

compound=CCN(CC)C(=O)N1CCN(C)CC1 number=0.993
compound="Cn1c(=O)c2c(ncn2CC(O)CO)n(C)c1=O (configuration not stated)" number=0.966
compound="COc1c(N2CCNC(C)C2)c(F)cc2c(=O)c(C(=O)O)cn(C3CC3)c12 (configuration not stated)" number=0.974
compound="CC1CCc2cc(F)cc3c(=O)c(C(=O)O)cn1c23 (configuration not stated)" number=0.961
compound=CCCCC[C@H]1C(=O)O[C@H](C)[C@H](NC(=O)c2cccc(NC=O)c2O)C(=O)O[C@@H](C)[C@@H]1OC(=O)CC(C)C number=0.9

List normalized growth for every entry below, keeping the order given.
1. CC1COc2c(N3CCN(C)CC3)c(F)cc3c(=O)c(C(=O)O)cn1c23 (configuration not stated)
2. CNCCC(Oc1ccc(C(F)(F)F)cc1)c1ccccc1 (configuration not stated)

Ans:
1.01
0.999

###

assay-overview: chemical genetic growth profiling, strain panel (AID 1159580);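 also: tested at 20 µM; growth read once vehicle control cultures reached saturation at 30 °C; 1 = growth at the plate median or of vehicle wells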
condition: S. cerevisiae deletion strains, growth OD, locus YOR231W, strain MKK1, hits give low values
The whole screen tested about 5,500 compounds, of which about 2,000 (36%) were called active. Another 18% or so got no clear call; they are omitted. This is one part of the list.
What normalized growth was measured for each of the following?
Answers are plain numbers.

A selection of reference data follows.
compound=Cc1ccc(C(=O)Nc2ccc(S(=O)(=O)O)c3cc(S(=O)(=O)O)cc(S(=O)(=O)O)c23)cc1NC(=O)c1cccc(NC(=O)Nc2cccc(C(=O)Nc3cc(C(=O)Nc4ccc(S(=O)(=O)O)c5cc(S(=O)(=O)O)cc(S(=O)(=O)O)c45)ccc3C)c2)c1 measure="normalized growth" number=1.11
compound=O=[N+]([O-])c1ccc(ON=C2CCCCC2)c([N+](=O)[O-])c1 measure="normalized growth" number=0.776
compound=N/C(CCSc1ccc(Cl)cc1)=N/OC(=O)Nc1ccc(Cl)cc1 measure="normalized growth" number=0.103
compound="CCCCC/C=C/CCC(=O)N[C@H]1[C@H](Oc2c3cc4cc2Oc2ccc(cc2Cl)[C@@H](O[C@@H]2O[C@H](CO)[C@@H](O)[C@H](O)[C@H]2NC(C)=O)[C@@H]2NC(=O)[C@H](NC(=O)[C@@H]4NC(=O)[C@H]4NC(=O)C(Cc5ccc(c(Cl)c5)O3)NC(=O)[C@H](N)c3ccc(O)c(c3)Oc3cc(O)cc4c3)c3ccc(O)c(c3)-c3c(OC4O[C@H](CO)[C@@H](O)[C@H](O)[C@@H]4O)cc(O)cc3[C@@H](C(=O)O)NC2=O)O[C@H](CO)[C@@H](O)[C@@H]1O (stereo partly drawn)" measure="normalized growth" number=0.961

Quick batch: normalized growth for everything below.
1. COC(=O)[C@@H]1OC(=O)C2OC23[C@@]1(C)CCC1[C@]2(C)C(C[C@H](O)[C@]13C)C(C)(C)[C@H](OC(C)=O)C[C@@H]2OC(C)=O (stereo partly drawn)
2. CN(C)CCOC(c1ccc(Cl)cc1)c1ccccn1 (stereo not drawn)
3. CN1C2CCC1CC(OC(c1ccccc1)c1ccccc1N)C2 (stereo not drawn)

Ans:
[0.989, 0.996, 0.977]

List the reported normalized growth of each compound below.
1. CN1C2C[C@H](OC(=O)[C@H](CO)c3ccccc3)C[C@H]1[C@@H](O)C2
2. CC(C)c1ccc(COC(=O)Nc2ccc(CSc3ccc(Cl)cc3)o2)cc1
3. CNC(=O)O/N=C(\C)SC

Ans:
1: 0.99; 2: 0.963; 3: 1.05

Batch request: normalized growth per item, same order as input.
1. Cc1[nH]c2ccccc2c1CN(C)C
2. NCCCS(=O)(=O)O
3. O=C1NCC2(CCN(CCc3ccccc3)CC2)O1
4. C=CCCCCCCCCCCCc1ccco1
5. Nc1ncn[nH]1
6. Nc1nc(=S)c2[nH]cnc2[nH]1
7. O=S(=O)(O)CCS

Ans:
0.987
0.976
0.979
0.856
0.988
1.02
0.974

Q: Would you mind telling me what normalized growth value was observed for C[C@@H]1O[C@@H](O[C@H]2[C@H](Oc3cc(O)c4c(=O)cc(-c5ccc(O)cc5)oc4c3)O[C@H](CO)[C@@H](O)[C@@H]2O)[C@H](O)[C@H](O)[C@H]1O ?
Ans: 0.989

###

assay-overview: chemical genetic growth profiling, strain panel (AID 1159580);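 also: tested at 20 µM; growth read once vehicle control cultures reached saturation at 30 °C; 1 = growth at the plate median or of vehicle wells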
condition: S. cerevisiae deletion strains, growth OD, locus YMR205C, strain PFK2
About 2,000 (36%) of roughly 5,500 compounds were called active. About 18% were inconclusive and are not listed. No stated cut-off is given here; in the data, active means normalized growth mostly below about 0.91 (no sharp cut-off); inconclusive means no clear call, values can overlap the other calls; inactive means mostly above about 0.92. The list shows a part of the results.
Please reply with one of these outcomes: active, inactive

molecule=CCCCCCCCC(=O)NCc1ccc(O)c(OC)c1 discrete_label=inactive

Q: Hey, what did the test say about COc1ccc2c(c1)OC/C(=C\c1ccc(OC)c(O)c1)C2=O ?
Ans: active

Q: Tell me the recorded outcome of this test for CN(C)CCN(Cc1ccccc1)c1ccccn1 .
Ans: inactive

Q: Please let me know the test result on file for CCN(CC)Cc1ccc(Nc2ccnc3cc(Cl)ccc23)cc1O .
Ans: inactive

Q: Per the records of this test, what outcome belongs to CN(C)CCN(Cc1cccs1)c1ccccn1 ?
Ans: inactive

Q: Could you check what this test reported for c1ccc2c(c1)CCCC2C1=NCCN1 (stereo unspecified) ?
Ans: inactive

###

assay-overview: chemical genetic growth profiling, strain panel (AID 1159580);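 also: tested at 20 µM; growth read once vehicle control cultures reached saturation at 30 °C; 1 = growth at the plate median or of vehicle wells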
condition: S. cerevisiae deletion strains, growth OD, locus YML124C, strain tub3, hits give low values
The campaign covered roughly 5,500 compounds. About 2,000 (36%) were called active. About 18% were inconclusive and are not listed. The list shows a part of the results.
Hi there, I'd appreciate the recorded normalized growth for every entry that follows.
Answers are plain numbers.

Sample records with normalized growth:
molecule="CCC(C)C(=O)O[C@@H]1C[C@@]2(C)[C@H](c3ccoc3)OC(=O)CC23OC2(C)O[C@]14[C@]1(C)[C@@H](CC(=O)OC)C5(C)CC1(O)[C@](O)(C5OC(=O)C1(C)OC1C)[C@@H](OC(C)=O)[C@]34O2 (stereo partly drawn)" number=1.01
molecule=Clc1ccc(C(c2ccc(Cl)cc2)C(Cl)(Cl)Cl)cc1 number=1
molecule=O=S(=O)(O)CCS number=0.994

Field: normalized growth. Fill in for each record below.
1. CC1CCc2cc(F)cc3c(=O)c(C(=O)O)cn1c23 (stereo not drawn)
2. CCC(C)C(=O)O[C@@H]1C[C@@]2(C)[C@H](c3ccoc3)OC(=O)CC23OC2(C)OC34[C@H](OC(=O)C(C)C)[C@@]3(O)[C@@H](OC(=O)C5(C)OC5C)[C@@]5(C)C[C@]3(O)[C@@](C)([C@H]5CC(=O)OC)C14O2 (stereo partly drawn)
3. CN1C2CCC1CC(OC(c1ccccc1)c1ccccc1)C2 (stereo not drawn)

Ans:
1. 0.994
2. 0.998
3. 0.993

Please supply normalized growth for each of the following items, keeping them in order.
1. CCn1cc(C(=O)O)c(=O)c2cc(F)c(N3CCNC(C)C3)c(F)c21 (stereo not drawn)
2. COc1ccc(C(c2ccc(OC)cc2)C(Cl)(Cl)Cl)cc1

Ans:
0.996
0.983
